test: viability of PTEN-deleted HCT116 cells – cell-based, HCT116 PTEN knockout, dose response (AID 1047); type: functional;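 note: HCT116 colon tumor cells with PTEN knocked out; cells exposed to compound for 60 hours before readout; potency for loss of cell viability measured by luminescence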
Active and inactive are the calls of the source.
Observable: EC50

Tell me the measured EC50 of C[C@@]1(CO)[C@H](O)CC[C@@]2(C)[C@H]1CC[C@H]1C[C@@H]3C[C@@]12CC[C@]3(O)CO [APHIDICOLIN] , please.
0.839 µM (active)

Same question for COc1ccc(Cn2c(SCc3cc(C)ccc3C)nc3cc(OC)c(OC)cc3c2=N)cc1 please.
2.47 µM (active)

Same question for COc1ccc(Cl)cc1NC(=O)CSc1ncnc2c1oc1ccccc12 please.
4.25 µM (active)

Same question for O=C(/C=C/c1ccccc1)/C=C/c1ccccc1 please.
1.22 µM (active)

Same question for Cc1cc(C2=NN=C(NC3CC3)SC2)c(C)n1-c1ccccc1 please.
23.7 µM (active)

Same question for CCOC(=O)c1c(NC(=O)C2CCCN(S(=O)(=O)c3ccccc3)C2)sc2c1CCCC2 (stereo unspecified) please.
50.9 µM (active)

###

target: Insulin-degrading enzyme (Homo sapiens, UniProt P14735); assay: cellular IDE activation of Abeta substrate cleavage – fluorescence polarization, HEK cells, dose response (AID 588439); type: functional, cell-based
Sequence (P14735 whole entry): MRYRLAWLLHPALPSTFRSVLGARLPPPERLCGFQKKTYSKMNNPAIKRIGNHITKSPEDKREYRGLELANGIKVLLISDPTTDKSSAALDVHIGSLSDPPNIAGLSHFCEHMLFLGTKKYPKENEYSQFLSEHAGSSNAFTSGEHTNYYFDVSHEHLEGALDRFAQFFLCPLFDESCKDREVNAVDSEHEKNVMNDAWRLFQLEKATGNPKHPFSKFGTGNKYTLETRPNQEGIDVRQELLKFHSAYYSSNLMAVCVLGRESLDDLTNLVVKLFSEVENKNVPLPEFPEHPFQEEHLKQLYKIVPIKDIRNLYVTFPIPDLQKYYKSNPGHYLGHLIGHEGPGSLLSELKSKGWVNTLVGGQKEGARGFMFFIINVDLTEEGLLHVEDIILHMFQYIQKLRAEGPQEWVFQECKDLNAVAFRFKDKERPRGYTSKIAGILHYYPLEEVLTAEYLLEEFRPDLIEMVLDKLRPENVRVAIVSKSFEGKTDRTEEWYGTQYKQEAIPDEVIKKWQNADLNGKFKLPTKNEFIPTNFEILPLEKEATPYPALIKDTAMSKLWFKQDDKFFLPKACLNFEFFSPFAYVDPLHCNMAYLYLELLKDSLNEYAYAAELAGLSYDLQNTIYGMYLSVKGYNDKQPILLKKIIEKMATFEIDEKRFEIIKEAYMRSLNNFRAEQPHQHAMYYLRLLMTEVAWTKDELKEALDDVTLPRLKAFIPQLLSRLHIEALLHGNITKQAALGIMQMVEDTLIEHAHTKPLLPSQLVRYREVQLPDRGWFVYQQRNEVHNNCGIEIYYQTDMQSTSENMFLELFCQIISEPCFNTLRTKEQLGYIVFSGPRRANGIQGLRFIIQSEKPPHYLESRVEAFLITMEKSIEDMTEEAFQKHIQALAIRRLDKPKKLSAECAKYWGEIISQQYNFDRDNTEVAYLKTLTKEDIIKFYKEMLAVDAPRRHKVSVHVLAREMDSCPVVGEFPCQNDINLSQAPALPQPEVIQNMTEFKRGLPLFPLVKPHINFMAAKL
Activity calls are given as the source filed them.
Choose the fitting class; nothing outside active, inactive is accepted.

Name the outcome recorded for CNC[C@H](Cc1ccccc1)NC[C@@H](Cc1cccc2ccccc12)NCCc1ccc(C)cc1 in the assay.
active

Same question for CC(C)CCN1C(=O)c2cccc3c(N)ccc(c23)C1=O please.
inactive

Same question for COc1ccc(Cn2c(SCc3cc(C)ccc3C)nc3cc(OC)c(OC)cc3c2=N)cc1 please.
active

Same question for CC(=O)Nc1ccc(S(=O)(=O)NCCc2ccccn2)cc1 please.
inactive

###

test: loss of viability in HepG2 cells – cell-based, CellTiter-Glo, cherry-picked, cytotoxicity control for Shn3 inhibitor project, dose response (AID 624134); format: functional
The source made the active and inactive calls.
Choose the fitting class; nothing outside active, inactive is accepted.

Name the outcome recorded for CCCCCCNC(=O)O[C@H]1Cn2c(=O)ccc(=O)n2[C@@H]2CN(S(=O)(=O)c3ccc(C)cc3)C[C@]12O in the assay.
active

Same question for CCOc1ccc(-c2nnc(N3CCCCC3)c3ccccc23)cc1 please.
inactive

Same question for Cc1oc(=O)c(NC(=O)c2ccc(Cl)cc2)cc1C(=O)c1ccccc1 please.
inactive

Same question for CCCC(=O)NC(c1ccc(Cl)cc1Cl)c1ccc2cccnc2c1O (configuration not stated) please.
inactive

Same question for CC(NC(=O)c1cc(COc2ccc3ncccc3c2)on1)c1ccc(F)cc1 (configuration not stated) please.
active

Same question for C=C1CC(Cn2cc(Br)c(=O)[nH]c2=O)(c2ccc(-c3ccccc3)cc2)OC1=O (configuration not stated) please.
active

Same question for CCc1ccc(CNCc2ccc(OCC(O)CN(C)Cc3ccccc3)cc2)nc1 (configuration not stated) please.
active

###

biological target: SWI/SNF-related matrix-associated actin-dependent regulator of chromatin subfamily A member 2 (Homo sapiens, UniProt P51531); assay: Luminescence-based cell-based high throughput dose response assay to identify activators of the function of SWI/SNF related, matrix associated, actin dependent regulator of chromatin, subfamily a, member 2 (SMARCA2, BRM).; format: functional
Sequence (P51531 whole entry): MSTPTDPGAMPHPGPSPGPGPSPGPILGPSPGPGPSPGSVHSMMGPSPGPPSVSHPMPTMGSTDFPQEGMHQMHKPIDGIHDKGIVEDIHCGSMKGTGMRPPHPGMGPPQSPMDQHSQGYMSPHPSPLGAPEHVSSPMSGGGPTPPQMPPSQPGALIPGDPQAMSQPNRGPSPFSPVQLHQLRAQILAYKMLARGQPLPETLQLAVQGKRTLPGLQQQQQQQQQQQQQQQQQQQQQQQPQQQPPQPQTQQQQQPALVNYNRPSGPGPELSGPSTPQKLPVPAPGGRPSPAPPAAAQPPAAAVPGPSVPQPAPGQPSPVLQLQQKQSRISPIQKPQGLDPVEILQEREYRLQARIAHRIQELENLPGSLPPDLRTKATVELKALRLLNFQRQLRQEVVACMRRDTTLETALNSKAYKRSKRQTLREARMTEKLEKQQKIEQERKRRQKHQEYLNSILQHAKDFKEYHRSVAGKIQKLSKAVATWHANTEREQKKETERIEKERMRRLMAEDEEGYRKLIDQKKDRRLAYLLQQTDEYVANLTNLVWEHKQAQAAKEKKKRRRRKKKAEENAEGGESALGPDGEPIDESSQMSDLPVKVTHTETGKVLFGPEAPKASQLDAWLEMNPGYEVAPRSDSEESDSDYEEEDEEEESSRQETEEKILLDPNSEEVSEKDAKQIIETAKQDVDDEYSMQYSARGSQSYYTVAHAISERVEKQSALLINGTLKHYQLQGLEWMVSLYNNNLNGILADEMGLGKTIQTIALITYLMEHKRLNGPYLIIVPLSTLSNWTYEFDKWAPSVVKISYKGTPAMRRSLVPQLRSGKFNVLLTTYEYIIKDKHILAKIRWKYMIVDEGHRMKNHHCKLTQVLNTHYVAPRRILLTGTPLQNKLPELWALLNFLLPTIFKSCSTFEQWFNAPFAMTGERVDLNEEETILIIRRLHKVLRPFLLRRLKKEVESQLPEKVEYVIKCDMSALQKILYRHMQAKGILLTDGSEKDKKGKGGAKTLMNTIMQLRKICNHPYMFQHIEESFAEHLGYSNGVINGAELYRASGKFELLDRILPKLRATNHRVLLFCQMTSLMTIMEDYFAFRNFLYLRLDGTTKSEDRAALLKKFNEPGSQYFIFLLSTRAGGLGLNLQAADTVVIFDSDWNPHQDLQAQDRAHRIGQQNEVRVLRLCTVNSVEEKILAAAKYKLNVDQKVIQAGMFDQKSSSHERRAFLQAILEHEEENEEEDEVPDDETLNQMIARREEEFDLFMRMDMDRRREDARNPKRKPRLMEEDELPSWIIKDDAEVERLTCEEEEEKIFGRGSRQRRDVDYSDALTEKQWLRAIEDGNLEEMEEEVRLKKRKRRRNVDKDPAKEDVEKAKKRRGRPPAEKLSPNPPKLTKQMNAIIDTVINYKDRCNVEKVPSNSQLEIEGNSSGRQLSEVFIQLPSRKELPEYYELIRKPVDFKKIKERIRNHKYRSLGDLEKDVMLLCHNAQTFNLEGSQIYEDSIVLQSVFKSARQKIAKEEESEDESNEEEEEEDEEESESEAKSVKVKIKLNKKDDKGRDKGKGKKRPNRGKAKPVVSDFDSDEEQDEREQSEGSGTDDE
The source made the active and inactive calls.
Choose the fitting class; nothing outside Y (active), N (inactive) is accepted.

Name the outcome recorded for COc1cccc(C(=O)COC(=O)c2cccs2)c1 in the assay.
N

Same question for Cc1nnc2c(N(C)S(=O)(=O)c3ccccc3)nc3ccccc3n12 please.
N

Same question for Cc1cc(C)n2nc(CNS(=O)(=O)c3c(F)c(F)c(F)c(F)c3F)nc2n1 please.
N

Same question for Nc1c2ccccc2nc2ccccc12 please.
Y

Same question for CCN(CC)CCn1c2ccccc2c2nc3ccccc3nc21 please.
N

###

For each entry below, report its EC50 value.
target: Oxysterols receptor LXR-beta (Homo sapiens); assay type: functional, cell-based;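 note: HEK293 cells with Gal4-LXR fusion and GAL4-driven luciferase reporter; potency for activation of Gal4-LXR reporter so compounds are agonists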;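 note: agonist activity at LXR measured by a cell-based luminescence readout across a dose range, run as a counterscreen for daf-12 agonists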
Sequence (P55055 whole entry, the tested form may be a part): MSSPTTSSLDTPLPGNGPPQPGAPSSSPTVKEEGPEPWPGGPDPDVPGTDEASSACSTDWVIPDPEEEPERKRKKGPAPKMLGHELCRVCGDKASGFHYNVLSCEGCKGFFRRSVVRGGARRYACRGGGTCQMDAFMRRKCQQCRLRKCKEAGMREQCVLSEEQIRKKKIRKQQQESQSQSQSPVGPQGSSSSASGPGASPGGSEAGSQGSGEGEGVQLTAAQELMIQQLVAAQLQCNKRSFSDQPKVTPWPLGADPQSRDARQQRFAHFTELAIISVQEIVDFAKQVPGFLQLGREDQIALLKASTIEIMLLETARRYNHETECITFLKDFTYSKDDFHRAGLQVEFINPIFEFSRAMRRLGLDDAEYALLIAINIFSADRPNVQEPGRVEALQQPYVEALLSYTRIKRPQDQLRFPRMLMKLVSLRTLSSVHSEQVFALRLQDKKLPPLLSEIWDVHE
Calls of active or inactive are those of the source.

Tell me the measured EC50 of CC/C(=N\NC(=O)c1ccoc1C)c1ccc(C)o1 , please.
> 67.5 µM (inactive)

Same question for CCN(CC)S(=O)(=O)c1cc(C(=O)OCC(=O)Nc2ccc(-c3nc4ccc(C)cc4s3)cc2)ccc1F please.
> 67.5 µM (inactive)

Same question for Nc1ccc(C(=O)Nc2ccccc2N)cc1 please.
> 67.6 µM (inactive)

Same question for CCc1ccc(C2CC(c3ccco3)=NN2S(C)(=O)=O)cc1 (stereo not given) please.
> 67.5 µM (inactive)

Same question for CCOc1ccc2nc(NC(=O)Nc3cccs3)sc2c1 please.
> 67.5 µM (inactive)

###

Biological target: Rac GTPase-activating protein 1 (Homo sapiens, UniProt Q9H0H5)
Sequence (Q9H0H5 whole entry): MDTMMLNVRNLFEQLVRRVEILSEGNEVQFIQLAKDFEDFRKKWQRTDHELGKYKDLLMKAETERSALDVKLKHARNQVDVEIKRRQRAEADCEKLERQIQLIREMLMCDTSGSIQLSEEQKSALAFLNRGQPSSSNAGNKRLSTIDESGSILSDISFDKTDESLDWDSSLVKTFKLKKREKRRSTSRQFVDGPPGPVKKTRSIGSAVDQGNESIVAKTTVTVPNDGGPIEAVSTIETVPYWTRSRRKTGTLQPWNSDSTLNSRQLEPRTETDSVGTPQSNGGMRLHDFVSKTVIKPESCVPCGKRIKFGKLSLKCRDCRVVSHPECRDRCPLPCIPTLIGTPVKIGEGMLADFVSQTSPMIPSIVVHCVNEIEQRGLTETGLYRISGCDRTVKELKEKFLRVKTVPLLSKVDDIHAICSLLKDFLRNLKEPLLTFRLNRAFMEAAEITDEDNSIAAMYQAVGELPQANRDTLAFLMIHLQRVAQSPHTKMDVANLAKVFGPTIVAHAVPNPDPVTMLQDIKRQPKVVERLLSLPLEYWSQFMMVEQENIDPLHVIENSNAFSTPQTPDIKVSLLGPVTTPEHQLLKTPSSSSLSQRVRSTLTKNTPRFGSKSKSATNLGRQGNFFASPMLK
Experiment: blockers of MgcRacGAP-driven Rac1 GTP hydrolysis – biochemical, ADP Hunter fluorescence, primary and confirmatory, confirmation (AID 624330)
Type: functional
Activity calls are given as the source filed them.
For each entry below, report its IC50 value.

Tell me the measured IC50 of Cc1ccc(Nc2ccc(N)cc2S(=O)(=O)O)cc1 , please.
40.2 µM (active)

Same question for COc1cc(CNC2CCCCC2OC)cc(OC)c1 (configuration not stated) please.
152 µM (active)

Same question for CN(C)c1ccc(NC2=C([N+](=O)[O-])CS(=O)(=O)C2)cc1 please.
42.7 µM (active)

Same question for COc1cc(/C=C/C(=O)OC(C)C(=O)Nc2c(C)n(C)n(-c3ccccc3)c2=O)ccc1O (configuration not stated) please.
61.4 µM (active)

Same question for CCOc1cc(/C=N/NC(=O)C(C)Sc2ccccn2)ccc1O (configuration not stated) please.
39.8 µM (active)

Same question for O=C1CSC(Nc2ccc(O)cc2)=N1 please.
35.9 µM (active)

Same question for Oc1ccc(-c2csc(Nc3cccnc3)n2)cc1 please.
18.2 µM (active)

Same question for Cn1cccc1/C=C1\C(=O)NC(=O)N(Cc2ccco2)C1=O please.
116 µM (active)

Same question for CCS(=O)(=O)c1ccc2oc(=O)c(/C=C(\O)c3ccc(Cl)cc3)nc2c1 please.
99.7 µM (active)

Same question for Oc1ccc(N2CCN(c3ccnc4cc(Cl)ccc34)CC2)cc1 please.
48.3 µM (active)

Same question for CCN1C(=Cc2sc3ccccc3[n+]2C)C=Cc2cccc(C)c21 please.
55.9 µM (active)

Same question for O=C1c2c(O)ccc(O)c2C(=O)c2c(NCCNCCO)ccc(NCCNCCO)c21 please.
14.5 µM (active)

###

Target: Low molecular weight phosphotyrosine protein phosphatase (Homo sapiens);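 note: Dose-response confirmation assay measuring inhibition of LMPTP enzyme activity by fluorescence intensity read-out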
Sequence (P24666 whole entry): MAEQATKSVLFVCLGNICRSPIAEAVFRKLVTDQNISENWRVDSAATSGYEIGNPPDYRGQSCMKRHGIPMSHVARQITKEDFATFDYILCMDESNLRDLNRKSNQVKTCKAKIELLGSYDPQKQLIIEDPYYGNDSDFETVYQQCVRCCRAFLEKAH
Type: functional
Conditions: read-out: IC50_Mean
The source made the active and inactive calls.
Choose the fitting class; nothing outside active, inactive is accepted.

Name the outcome recorded for Cc1c(CC(=O)O)c(=O)oc2c(C)c(OCc3ccc(F)cc3Cl)ccc12 in the assay.
active

Same question for O=c1c(Cl)c(N/N=C/c2ccc(Cl)cc2)cnn1-c1ccccc1 please.
inactive

Same question for O=C(CSc1nc(-c2ccccc2)nc2ccc(F)cc12)Nc1cccc(C(=O)O)c1 please.
inactive

Same question for CC(Nc1nc(-c2ccccc2)nc2ccccc12)c1ccccc1 (centres undefined) please.
inactive

###

target: UniProt:G5EF15; experiment: disruptors of C. elegans POS-1 RNA interaction – biochemical, fluorescence polarization, dose response (AID 1964);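 note: purified POS-1 fused to maltose binding protein made in E. coli; potency of compounds blocking POS-1 binding to fluorescent RNA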
Sequence (G5EF15 whole entry, the tested form may be a part): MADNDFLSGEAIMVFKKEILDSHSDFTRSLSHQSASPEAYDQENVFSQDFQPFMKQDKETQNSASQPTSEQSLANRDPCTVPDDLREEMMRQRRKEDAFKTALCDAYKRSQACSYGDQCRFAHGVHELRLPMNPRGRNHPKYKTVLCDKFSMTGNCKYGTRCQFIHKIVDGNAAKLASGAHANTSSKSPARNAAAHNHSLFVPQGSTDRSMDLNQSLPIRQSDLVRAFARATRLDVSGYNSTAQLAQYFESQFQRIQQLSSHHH
Activity calls are given as the source filed them.
Observable: EC50

Tell me the measured EC50 of Nc1nnc2c(n1)CCCC2 , please.
104 µM (active)

Same question for O=C(NCc1ccncc1)C(=O)N/N=C/c1ccccn1 please.
86.1 µM (active)

Same question for Cn1cccc1/C=C1\C(=O)NC(=O)N(Cc2ccco2)C1=O please.
> 300 µM (not active)

Same question for Cc1ccc2cc(/C=C(\C#N)C(N)=O)c(N3CCCCC3)nc2c1 please.
50.6 µM (active)

Same question for CN(CC(=O)NCc1ccccn1)S(=O)(=O)c1ccc(Br)cc1 please.
> 300 µM (not active)

Same question for COc1cccc(OCCn2cc(C=O)c3ccccc32)c1 please.
> 300 µM (not active)

Same question for CN(C)c1ccc(/C=N/N(CCC(=O)NC(C)(C)C)C2=NS(=O)(=O)c3ccccc32)cc1 please.
> 300 µM (not active)

Same question for CCCN1C(=O)c2cccc3c(N4CCCCC4)ccc(c23)C1=O please.
29.8 µM (active)

Same question for COC(=O)c1ccc(-n2c(C)cc(/C=N/Nc3nc(C)cc(O)n3)c2C)cc1 please.
> 300 µM (not active)

Same question for COc1cc([C@H](Cc2ccccc2)NC(C)=O)oc(=O)c1 please.
38.7 µM (active)
